- ASSAY_EXPLANATION: Selectivity ratio of Ki for mouse iNOS to Ki for rat nNOS
Non-standard residues stand in square brackets, D forms with d. Residues, ends and D or L forms follow the SMILES beside them. dArg(NO2) = N=C(NCCC[C@@H](N)C(=O)O)N[N+](=O)[O-]
READOUT_NAME: Ratio Ki

Provide each entry's Ratio Ki from the list below.
1. COC(=O)[C@@H](CCCNC(=N)N[N+](=O)[O-])NC(=O)[C@H](N)Cc1ccccc1 (H-[dF]-[dArg(NO2)]-OMe)
2. N=C(NCCC[C@H](N)C(=O)O)N[N+](=O)[O-]
3. C=CNC(=N)NCCC[C@H](N)C(=O)O
4. N/N=C(\N)NCCC[C@H](N)C(=O)O

Response:
1. 1800
2. 293
3. 11
4. 10

====

- MEASURED_ON: UniProtKB P29476
- Sequence (P29476 whole entry): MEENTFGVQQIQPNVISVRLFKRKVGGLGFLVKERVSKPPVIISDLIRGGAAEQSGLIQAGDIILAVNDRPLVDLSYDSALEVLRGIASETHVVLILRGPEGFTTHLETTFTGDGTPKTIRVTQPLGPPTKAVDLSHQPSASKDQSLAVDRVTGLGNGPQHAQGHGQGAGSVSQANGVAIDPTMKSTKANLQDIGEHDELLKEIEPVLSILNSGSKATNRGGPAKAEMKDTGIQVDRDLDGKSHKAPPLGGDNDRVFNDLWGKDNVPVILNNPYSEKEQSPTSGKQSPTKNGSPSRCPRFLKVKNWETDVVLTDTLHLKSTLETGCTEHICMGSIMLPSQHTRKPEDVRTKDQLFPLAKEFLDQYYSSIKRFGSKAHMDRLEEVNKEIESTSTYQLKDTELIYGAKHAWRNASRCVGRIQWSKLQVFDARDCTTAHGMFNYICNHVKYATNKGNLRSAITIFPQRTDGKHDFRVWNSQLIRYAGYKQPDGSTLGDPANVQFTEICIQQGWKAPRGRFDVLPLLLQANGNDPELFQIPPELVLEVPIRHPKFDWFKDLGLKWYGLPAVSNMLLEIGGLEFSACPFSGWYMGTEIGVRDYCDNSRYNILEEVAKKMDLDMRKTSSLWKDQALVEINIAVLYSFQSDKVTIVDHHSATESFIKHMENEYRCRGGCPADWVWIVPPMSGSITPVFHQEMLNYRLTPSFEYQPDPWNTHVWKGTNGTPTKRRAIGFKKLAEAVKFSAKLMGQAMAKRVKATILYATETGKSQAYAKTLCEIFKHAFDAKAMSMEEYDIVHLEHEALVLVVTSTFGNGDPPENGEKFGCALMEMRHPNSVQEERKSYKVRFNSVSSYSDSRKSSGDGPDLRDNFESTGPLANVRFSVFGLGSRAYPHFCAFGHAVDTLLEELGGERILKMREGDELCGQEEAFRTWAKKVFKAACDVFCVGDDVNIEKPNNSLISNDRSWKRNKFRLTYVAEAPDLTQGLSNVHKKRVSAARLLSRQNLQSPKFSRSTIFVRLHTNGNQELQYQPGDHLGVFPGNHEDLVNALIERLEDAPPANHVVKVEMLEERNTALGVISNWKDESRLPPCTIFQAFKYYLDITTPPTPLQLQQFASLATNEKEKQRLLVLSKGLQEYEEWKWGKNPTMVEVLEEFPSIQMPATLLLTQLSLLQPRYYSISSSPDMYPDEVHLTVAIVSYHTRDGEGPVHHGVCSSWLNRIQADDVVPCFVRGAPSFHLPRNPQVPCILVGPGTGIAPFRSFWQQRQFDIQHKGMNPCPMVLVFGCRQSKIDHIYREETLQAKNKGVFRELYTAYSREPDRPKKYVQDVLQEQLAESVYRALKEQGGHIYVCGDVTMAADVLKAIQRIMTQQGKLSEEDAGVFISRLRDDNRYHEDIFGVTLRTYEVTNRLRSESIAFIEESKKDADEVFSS
Non-standard residues stand in square brackets, D forms with d. Residues, ends and D or L forms follow the SMILES beside them. dArg(NO2) = N=C(NCCC[C@@H](N)C(=O)O)N[N+](=O)[O-]
READOUT_NAME: pKi
One number for each entry, as −log10 of the molar value.

Request: Let me know recorded pKi for COC(=O)[C@@H](CCCNC(=N)N[N+](=O)[O-])NC(=O)[C@H](N)Cc1ccccc1 (H-[dF]-[dArg(NO2)]-OMe) , thanks.
Response: 5.72

====

- ASSAY_EXPLANATION: Selectivity ratio of Ki for bovine eNOS to Ki for rat nNOS
Non-standard residues stand in square brackets, D forms with d. Residues, ends and D or L forms follow the SMILES beside them. dArg(NO2) = N=C(NCCC[C@@H](N)C(=O)O)N[N+](=O)[O-]
So I've got a bunch of compounds here, and I need their Ratio Ki values.
Answers are plain numbers.

Solved entries:
COMPOUND: C=CNC(=N)NCCC[C@H](N)C(=O)O
READOUT_NAME: Ratio Ki
MEASURED_NUMBER: 35

COMPOUND: COC(=O)[C@@H](CCCNC(=N)N[N+](=O)[O-])NC(=O)[C@H](N)Cc1ccccc1 (H-[dF]-[dArg(NO2)]-OMe)
READOUT_NAME: Ratio Ki
MEASURED_NUMBER: 2.6

COMPOUND: N/N=C(\N)NCCC[C@H](N)C(=O)O
READOUT_NAME: Ratio Ki
MEASURED_NUMBER: 8.3

Turning now to a further compound:
Request: Let me know recorded Ratio Ki for N=C(NCCC[C@H](N)C(=O)O)N[N+](=O)[O-] [NITROARGININE] , thanks.
Response: 11

====

- ASSAY_EXPLANATION: Inhibition of NMDA receptor in mouse medium spiny neurons by whole cell patch clamp assay
READOUT_NAME: IC50 (µM)
One number for each entry, in µM.

Request: Let me know recorded IC50 for Cc1ccc2c(c1)c1c(n2CCc2ccc(C)nc2)CCN(C)C1 [LATREPIRDINE] , thanks.
Response: 10

====

- ASSAY_EXPLANATION: Neuroprotective activity in rat Cortical neuron assessed as protection from glutamate-induced neurotoxicity treated after glutamate-challenge by lactate dehydrogenase assay
- Assay type: functional
- CONDITION_SUMMARY: cortical neurone
So I've got a bunch of compounds here, and I need their IC50 values.
Answers are plain numbers, in µM.

COMPOUND: C[C@@H](CN1CCC(Cc2ccccc2)CC1)[C@@H](O)c1ccc(O)cc1
MEASURED_NUMBER: 0.4

Turning now to a further compound:
Request: Let me know recorded IC50 for CC(C(O)c1ccc(O)cc1)N1CCC(Cc2ccccc2)CC1 (configuration not stated) , thanks.
Response: 3.5

====

So I've got a bunch of compounds here, and I need their pIC50 values.
- MEASURED_ON: Nitric oxide synthase 1 (Homo sapiens)
- Sequence (P29475 whole entry): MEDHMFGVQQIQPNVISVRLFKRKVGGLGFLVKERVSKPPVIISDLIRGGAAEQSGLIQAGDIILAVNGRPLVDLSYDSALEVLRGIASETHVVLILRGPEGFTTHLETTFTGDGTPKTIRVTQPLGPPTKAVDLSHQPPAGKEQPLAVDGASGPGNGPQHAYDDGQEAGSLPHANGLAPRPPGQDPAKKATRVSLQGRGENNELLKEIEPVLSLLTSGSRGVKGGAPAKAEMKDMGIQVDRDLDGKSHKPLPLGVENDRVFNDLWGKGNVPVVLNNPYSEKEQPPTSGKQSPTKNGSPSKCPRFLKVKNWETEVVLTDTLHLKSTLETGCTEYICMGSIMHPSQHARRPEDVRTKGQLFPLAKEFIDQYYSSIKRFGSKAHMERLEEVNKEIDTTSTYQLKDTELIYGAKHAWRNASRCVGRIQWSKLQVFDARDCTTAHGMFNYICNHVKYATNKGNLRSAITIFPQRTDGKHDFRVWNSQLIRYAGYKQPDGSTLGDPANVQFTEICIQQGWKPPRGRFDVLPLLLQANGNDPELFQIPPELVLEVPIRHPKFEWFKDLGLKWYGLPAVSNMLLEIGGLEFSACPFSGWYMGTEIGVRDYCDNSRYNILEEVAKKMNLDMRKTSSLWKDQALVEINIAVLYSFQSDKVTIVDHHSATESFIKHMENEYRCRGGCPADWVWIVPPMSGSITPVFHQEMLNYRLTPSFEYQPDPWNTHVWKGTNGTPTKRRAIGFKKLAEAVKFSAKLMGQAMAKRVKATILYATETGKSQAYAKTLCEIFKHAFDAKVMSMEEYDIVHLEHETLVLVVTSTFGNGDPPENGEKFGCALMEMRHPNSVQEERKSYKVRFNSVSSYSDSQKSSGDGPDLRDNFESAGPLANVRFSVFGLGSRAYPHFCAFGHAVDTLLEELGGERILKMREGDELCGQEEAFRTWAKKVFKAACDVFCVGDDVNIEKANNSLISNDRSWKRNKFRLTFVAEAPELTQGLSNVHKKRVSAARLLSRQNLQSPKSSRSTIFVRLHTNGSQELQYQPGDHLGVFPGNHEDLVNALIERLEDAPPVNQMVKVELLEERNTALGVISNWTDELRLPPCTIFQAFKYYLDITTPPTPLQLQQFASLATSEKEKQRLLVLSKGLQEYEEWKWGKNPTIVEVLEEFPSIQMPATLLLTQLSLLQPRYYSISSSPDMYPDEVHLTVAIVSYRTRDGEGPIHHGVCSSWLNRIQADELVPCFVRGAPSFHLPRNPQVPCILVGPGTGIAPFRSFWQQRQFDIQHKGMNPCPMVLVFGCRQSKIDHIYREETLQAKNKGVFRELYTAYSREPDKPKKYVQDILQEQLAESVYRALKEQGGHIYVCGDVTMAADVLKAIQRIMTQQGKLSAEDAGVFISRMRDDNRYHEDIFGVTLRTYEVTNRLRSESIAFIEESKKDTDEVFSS
Numbers only, as −log10 of the molar value.

LINE_NOTATION: CN(C)CCOc1ccc(-c2cccc(N)n2)c2c1CCCC2
pIC50: 7.15

Turning now to a further compound:
Request: Let me know recorded pIC50 for CC(=O)CN1CCN(CCc2ccc(-c3cccc(N)n3)cc2)CC1 , thanks.
Response: 6.85

====

- MEASURED_ON: Microtubule-associated protein tau (Homo sapiens)
- Sequence (P10636 whole entry): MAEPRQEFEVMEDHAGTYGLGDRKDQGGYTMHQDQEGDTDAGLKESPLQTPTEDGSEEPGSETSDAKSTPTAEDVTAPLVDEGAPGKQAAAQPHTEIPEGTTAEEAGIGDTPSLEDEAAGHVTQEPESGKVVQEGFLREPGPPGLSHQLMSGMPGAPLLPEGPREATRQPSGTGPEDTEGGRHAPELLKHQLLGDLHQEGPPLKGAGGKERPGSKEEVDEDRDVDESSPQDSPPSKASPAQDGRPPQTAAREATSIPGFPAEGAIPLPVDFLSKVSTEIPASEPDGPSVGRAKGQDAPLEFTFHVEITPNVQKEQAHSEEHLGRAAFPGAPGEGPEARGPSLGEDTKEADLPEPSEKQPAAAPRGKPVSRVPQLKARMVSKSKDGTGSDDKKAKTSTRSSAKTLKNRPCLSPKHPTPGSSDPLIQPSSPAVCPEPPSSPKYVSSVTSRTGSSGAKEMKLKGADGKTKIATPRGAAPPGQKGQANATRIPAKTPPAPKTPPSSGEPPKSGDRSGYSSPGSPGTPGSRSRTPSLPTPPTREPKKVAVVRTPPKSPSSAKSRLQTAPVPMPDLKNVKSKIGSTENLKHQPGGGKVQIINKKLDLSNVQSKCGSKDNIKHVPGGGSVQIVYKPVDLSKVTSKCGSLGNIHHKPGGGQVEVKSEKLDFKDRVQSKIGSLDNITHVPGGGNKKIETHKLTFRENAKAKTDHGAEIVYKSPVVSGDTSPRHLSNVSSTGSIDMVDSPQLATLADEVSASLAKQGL
- ASSAY_EXPLANATION: Inhibition of recombinant tau (unknown origin) aggregation
READOUT_NAME: pKi
Give bare numbers, as −log10 of the molar value.

Request: Let me know recorded pKi for Cc1cc2nc3ccc(N(C)C)cc3[s+]c2cc1N [TOLONIUM CHLORIDE] , thanks.
Response: 7.16
